Data origin, for the record: patent US9611249B2

- measuredOn: IKKepsilon (h) (IKBKE) (Homo sapiens (Human))
- Sequence (Q14164 whole entry): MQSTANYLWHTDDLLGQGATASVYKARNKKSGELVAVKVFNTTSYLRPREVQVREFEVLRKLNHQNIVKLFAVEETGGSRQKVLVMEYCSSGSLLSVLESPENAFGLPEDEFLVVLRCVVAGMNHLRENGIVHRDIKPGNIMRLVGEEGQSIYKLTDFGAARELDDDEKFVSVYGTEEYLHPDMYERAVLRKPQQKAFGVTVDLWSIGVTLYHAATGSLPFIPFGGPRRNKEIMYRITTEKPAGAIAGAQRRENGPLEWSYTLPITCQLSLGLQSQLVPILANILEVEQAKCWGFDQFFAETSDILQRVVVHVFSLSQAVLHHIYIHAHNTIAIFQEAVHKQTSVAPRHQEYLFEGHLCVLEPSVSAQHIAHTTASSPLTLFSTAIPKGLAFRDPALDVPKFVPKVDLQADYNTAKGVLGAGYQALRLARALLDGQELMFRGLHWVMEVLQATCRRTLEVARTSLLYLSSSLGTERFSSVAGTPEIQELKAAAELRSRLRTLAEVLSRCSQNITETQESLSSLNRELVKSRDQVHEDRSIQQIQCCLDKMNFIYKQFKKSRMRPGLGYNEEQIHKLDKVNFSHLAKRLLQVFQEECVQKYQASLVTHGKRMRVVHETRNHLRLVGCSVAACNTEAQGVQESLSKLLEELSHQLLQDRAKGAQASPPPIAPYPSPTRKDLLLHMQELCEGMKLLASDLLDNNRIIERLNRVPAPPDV
- protocolDetails: Kinase selectivity panel: IKKepsilon (h) (IKBKE)
- Format: biochemical
- runParameters: 10 μM in duplicate, read-out: % inhibition of control values
# reported inhibition at 10 µM; entries follow
Express the result in % but write the number alone.

* COCCN1CCC(CNC(=O)c2n[nH]c3ccc(-c4cccc(F)c4F)cc23)CC1 | 3

Recorded inhibition at 10 µM for COc1ccc2[nH]nc(C(=O)NCC3CCN(CC(=O)O)CC3)c2c1 , please?
0

Name the reported inhibition at 10 µM value associated with the molecule COCCN1CCC(CNC(=O)c2n[nH]c3ccc(OC)cc23)CC1
0

What does the record list as inhibition at 10 µM for COc1ccc2[nH]nc(C(=O)NCC3CCN(CCC(=O)O)CC3)c2c1 ?
0
